Target: Lanosterol 14-alpha demethylase (Candida albicans (strain SC5314 / ATCC MYA-2876) (Yeast))
Experiment: Inhibition of CYP51 in fluconazole-susceptible Candida albicans CAAL93 assessed as lanosterol level at 22 ng/mL after 2 hrs
Set-up: scale not given: the % may be the effect or the level left
measure name: Activity (%)
Reply with just the number (in %).

Inquiry: Name the reported Activity value associated with the compound C[C@@H](n1cnc2cc3scnc3cc2c1=O)[C@](O)(Cn1cncn1)c1ccc(F)cc1F
Reply text: 41.6

====

Molecular target: Lanosterol 14-alpha demethylase (Candida albicans (strain SC5314 / ATCC MYA-2876) (Yeast), UniProt P10613)
Sequence (P10613 whole entry): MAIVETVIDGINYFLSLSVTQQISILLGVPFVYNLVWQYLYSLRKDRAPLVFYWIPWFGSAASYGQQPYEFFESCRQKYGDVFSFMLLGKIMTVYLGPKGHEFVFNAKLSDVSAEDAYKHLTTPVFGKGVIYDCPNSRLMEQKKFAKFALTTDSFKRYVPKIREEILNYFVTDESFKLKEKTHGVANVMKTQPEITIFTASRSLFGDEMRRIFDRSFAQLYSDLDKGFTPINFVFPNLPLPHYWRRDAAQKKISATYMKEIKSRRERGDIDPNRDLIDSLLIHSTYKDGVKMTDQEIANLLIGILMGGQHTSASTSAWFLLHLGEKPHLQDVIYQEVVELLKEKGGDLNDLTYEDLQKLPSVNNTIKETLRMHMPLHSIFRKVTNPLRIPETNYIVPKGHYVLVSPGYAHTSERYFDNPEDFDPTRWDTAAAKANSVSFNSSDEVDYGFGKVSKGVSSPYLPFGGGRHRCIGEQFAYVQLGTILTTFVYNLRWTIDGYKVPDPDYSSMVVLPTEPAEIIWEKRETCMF
Test: Inhibition of CYP51 in fluconazole-susceptible Candida albicans CAAL93 assessed as ergosterol level at 22 ng/mL after 2 hrs
Parameters: scale not given: the % may be the effect or the level left
measure name: Activity (%)
Reply with just the number (in %).

Inquiry: Name the reported Activity value associated with the molecule C[C@@H](n1cnc2cc3scnc3cc2c1=O)[C@](O)(Cn1cncn1)c1ccc(F)cc1F
Reply text: 5.4

====

Biological target: Lanosterol 14-alpha demethylase (Candida albicans (strain SC5314 / ATCC MYA-2876) (Yeast), UniProt P10613)
Experiment: Inhibition of CYP51 in fluconazole-susceptible Candida albicans CAAL93 assessed as 14-methylepisterol level at 22 ng/mL after 2 hrs
Design: scale not given: the % may be the effect or the level left
measure name: Activity (%)
Reply with just the number (in %).

Inquiry: Name the reported Activity value associated with the compound C[C@@H](n1cnc2cc3scnc3cc2c1=O)[C@](O)(Cn1cncn1)c1ccc(F)cc1F
Reply text: 15.7

====

Molecular target: Lanosterol 14-alpha demethylase (Candida albicans (strain SC5314 / ATCC MYA-2876) (Yeast), UniProt P10613)
Assay: Inhibition of CYP51 in fluconazole-susceptible Candida albicans CAAL93 assessed as lanosterol level at 4.5 ng/mL after 2 hrs
Set-up: scale not given: the % may be the effect or the level left
measure name: Activity (%)
Reply with just the number (in %).

Inquiry: Name the reported Activity value associated with the molecule C[C@@H](n1cnc2cc3scnc3cc2c1=O)[C@](O)(Cn1cncn1)c1ccc(F)cc1F
Reply text: 29.9

====

Biological target: Lanosterol 14-alpha demethylase (Candida albicans (strain SC5314 / ATCC MYA-2876) (Yeast), UniProt P10613)
Test: Inhibition of CYP51 in fluconazole-susceptible Candida albicans CAAL93 assessed as 14-methyl-3,6-diol level at 22 ng/mL after 2 hrs
Parameters: scale not given: the % may be the effect or the level left
measure name: Activity (%)
Reply with just the number (in %).

Inquiry: Name the reported Activity value associated with the compound C[C@@H](n1cnc2cc3scnc3cc2c1=O)[C@](O)(Cn1cncn1)c1ccc(F)cc1F
Reply text: 5.4

====

Molecular target: Lanosterol 14-alpha demethylase (Candida albicans (strain SC5314 / ATCC MYA-2876) (Yeast), UniProt P10613)
Experiment: Inhibition of CYP51 in fluconazole-susceptible Candida albicans CAAL93 assessed as eburicol level at 4.5 ng/mL after 2 hrs
Parameters: scale not given: the % may be the effect or the level left
measure name: Activity (%)
Reply with just the number (in %).

Inquiry: Name the reported Activity value associated with the molecule C[C@@H](n1cnc2cc3scnc3cc2c1=O)[C@](O)(Cn1cncn1)c1ccc(F)cc1F
Reply text: 4.4

====

Reported MIC by item:
Test system: Candida albicans
Assay: Antifungal activity against fluconazole-susceptible Candida albicans CAAL97 after 24 hrs by spectrofluorometric analysis
Format: functional
Details: CAAL97, 24 h

Answered examples (4):
C[C@@H](n1cnc2cc(Cl)ccc2c1=O)[C@](O)(Cn1cncn1)c1ccc(F)cc1F = < 1 ng/mL
OC(Cn1cncn1)(Cn1cncn1)c1ccc(F)cc1F = 18 ng/mL
C[C@@H](c1ncncc1F)[C@](O)(Cn1cncn1)c1ccc(F)cc1F = < 3 ng/mL
C[C@@H](n1cnc2cc3scnc3cc2c1=O)[C@](O)(Cn1cncn1)c1ccc(F)cc1F = < 1 ng/mL

From here, focus on the item given below.
Inquiry: Name the reported MIC value associated with the compound C[C@@H](n1cnc2ccc3ncsc3c2c1=O)[C@](O)(Cn1cncn1)c1ccc(F)cc1F
Reply text: < 1 ng/mL

====

Biological target: Lanosterol 14-alpha demethylase (Candida albicans (strain SC5314 / ATCC MYA-2876) (Yeast))
Assay: Inhibition of CYP51 in fluconazole-susceptible Candida albicans CAAL93 assessed as episterol level at 4.5 ng/mL after 2 hrs
Parameters: scale not given: the % may be the effect or the level left
measure name: Activity (%)
Reply with just the number (in %).

Inquiry: Name the reported Activity value associated with the compound C[C@@H](n1cnc2cc3scnc3cc2c1=O)[C@](O)(Cn1cncn1)c1ccc(F)cc1F
Reply text: 2.9

====

Biological target: Lanosterol 14-alpha demethylase (Candida albicans (strain SC5314 / ATCC MYA-2876) (Yeast), UniProt P10613)
Test: Inhibition of CYP51 in fluconazole-susceptible Candida albicans CAAL93 assessed as zymosterol level at 4.5 ng/mL after 2 hrs
Set-up: scale not given: the % may be the effect or the level left
measure name: Activity (%)
Reply with just the number (in %).

Inquiry: Name the reported Activity value associated with the compound C[C@@H](n1cnc2cc3scnc3cc2c1=O)[C@](O)(Cn1cncn1)c1ccc(F)cc1F
Reply text: 2

====

Biological target: Lanosterol 14-alpha demethylase (Candida albicans (strain SC5314 / ATCC MYA-2876) (Yeast), UniProt P10613)
Assay: Inhibition of CYP51 in fluconazole-susceptible Candida albicans CAAL93 assessed as ergosterol level at 4.5 ng/mL after 2 hrs
Design: scale not given: the % may be the effect or the level left
measure name: Activity (%)
Reply with just the number (in %).

Inquiry: Name the reported Activity value associated with the compound C[C@@H](n1cnc2cc3scnc3cc2c1=O)[C@](O)(Cn1cncn1)c1ccc(F)cc1F
Reply text: 51.1

====

Reported log10(MIC) by item:
Tested on: Nakaseomyces glabratus
Experiment: Antifungal activity against Candida glabrata CAGL2 after 24 hrs by spectrofluorometric analysis
Assay type: functional
Conditions: CAGL2, 24 h
The base-10 logarithm of MIC, taken with MIC in µg/mL, is what appears here.

C[C@@H](c1ncncc1F)[C@](O)(Cn1cncn1)c1ccc(F)cc1F = -1.21
OC(Cn1cncn1)(Cn1cncn1)c1ccc(F)cc1F = 0.89
C[C@@H](n1cnc2cc3scnc3cc2c1=O)[C@](O)(Cn1cncn1)c1ccc(F)cc1F = -1.17
C[C@@H](n1cnc2cc(Cl)ccc2c1=O)[C@](O)(Cn1cncn1)c1ccc(F)cc1F = -1.19

From here, focus on the item given below.
Inquiry: Name the reported log10(MIC) value associated with the compound C[C@@H](n1cnc2ccc3ncsc3c2c1=O)[C@](O)(Cn1cncn1)c1ccc(F)cc1F
Reply text: -1.02
